Each entry below carries its reported Percent Effect.
Tested on: Leishmania donovani
Test: Leishmania intramacrophage assay
Type: functional, organism-based
Design: scale not given: in the data most compounds retested in dose-response had high values
Conditions: 30.3 µM; […]
The whole screen tested about 69,000 compounds, of which about 1,000 (1.4%) showed an effect of 50% or more. Only a selection was taken, and strong results are over-represented in it overall.
Record the value in %, omitting the unit from your answer.

Cc1n[nH]c(CN2CCN(c3ncnc4scc(C)c34)CC2)c1Cl	71.39
COc1cc(CN2CC[C@@H](N3CCCCCC3)[C@H](O)C2)cc(Cl)c1OC	50.85
CCNC(=O)[C@@H]1C[C@H](N)CN1c1cc(C(F)(F)F)nc(N2CCCC2)n1	23.81
COc1ccc(CNC(Cc2ccsc2)c2ccc(C)cn2)c(OC)c1 (centres undefined)	62.45
CS(=O)(=O)NC[C@]12COC[C@H]1CN(CCc1ccccc1)C2.O=C(O)C(F)(F)F	17.9

### Prompt Would you mind telling me what Percent Effect value was observed for Cc1cccc(N2CC3(CCN(Cc4nccn4C)C3)CC2=O)c1.O=C(O)C(F)(F)F (centres undefined) ?
### Response 24.22

### Prompt Would you mind telling me what Percent Effect value was observed for `CCn1ncc(-c2cc(C(F)(F)F)nc(N3CCC(N)CC3)n2)c1C` ?
### Response 100.6

### Prompt Would you mind telling me what Percent Effect value was observed for `Fc1ccc(N2CCCN(c3ccc(Cn4ccnc4)cn3)CC2)cc1` ?
### Response 41.56

### Prompt Would you mind telling me what Percent Effect value was observed for Cn1ccnc1CN1CCC2(CC(=O)N(c3ccsc3)C2)C1.O=C(O)C(F)(F)F (centres undefined) ?
### Response 19.56

### Prompt Would you mind telling me what Percent Effect value was observed for Cc1ccc(N2CC3(CCN(Cc4nccn4C)C3)CC2=O)s1.O=C(O)C(F)(F)F (centres undefined) ?
### Response 55.03

###

Each entry below carries its reported Percent Effect.
System: Leishmania donovani
Assay: Leishmania intramacrophage assay
Type: functional, organism-based
Parameters: scale not given: in the data most compounds retested in dose-response had high values
Conditions: 30.3 µM; […]
Out of some 69,000 compounds screened, about 1,000 (1.4%) showed an effect of 50% or more. Many of the other results were omitted from the sample, so strong results are more common in it than they were.
Include the unit right after the number.

Here are 5 compounds together with their reported answers.
FC(F)(F)c1cccc(OC2CCN(Cc3c[nH]cn3)CC2)c1	0.2013%
OC1(CNCCN2CCc3ccccc32)CNCCOC1 (stereo unspecified)	12.43%
C[C@H](NC(=O)c1cnc(-c2ccccc2)nc1O)C(N)=O	12.89%
FC(F)(F)c1cccc(OC2CCN(Cc3ncc[nH]3)CC2)c1	17.17%
OC1(CN2CCN(c3cccc(C(F)(F)F)c3)CC2)CNCCOC1 (stereo unspecified)	51.12%

### Prompt Would you mind telling me what Percent Effect value was observed for Cc1ccc(C2CSCCN2C(=O)c2cccs2)o1 (stereo unspecified) ?
### Response 15.58%

### Prompt Would you mind telling me what Percent Effect value was observed for CCOC(=O)C1(Cc2cccc(OC)c2)CCCN(Cc2ncc[nH]2)C1 (stereo unspecified) ?
### Response -0.9604%

### Prompt Would you mind telling me what Percent Effect value was observed for OC1(CN2CCCC2)COCCN(c2cc(C(F)(F)F)ccn2)C1 (stereo unspecified) ?
### Response 29.85%

### Prompt Would you mind telling me what Percent Effect value was observed for OC1(CN2CCC(Oc3cccc(C(F)(F)F)c3)CC2)CNCCOC1 (stereo unspecified) ?
### Response 78.32%

### Prompt Would you mind telling me what Percent Effect value was observed for `Cc1c(C(=O)NS(=O)(=O)c2ccc(F)cc2)cnn1CC(C)C` ?
### Response -23.8%

### Prompt Would you mind telling me what Percent Effect value was observed for OC1(CN2CCC(Oc3cccc(C(F)(F)F)c3)CC2)CCNC1 (stereo unspecified) ?
### Response 100.3%
